Compiled from multiple publications: Ki readings for 5-hydroxytryptamine receptor 3A (Mus musculus, UniProt P23979).
Endpoint name: Ki

{"Compound": "N=C(N)NC(=N)Nc1cccc(Cl)c1", "Endpoint name": "Ki", "Recorded result": "0.00094 µM"}
{"Compound": "Cc1nc2n(c(=O)c1CCN1CCC(c3noc4cc(F)ccc34)CC1)CCCC2O (stereo unspecified)", "Endpoint name": "Ki", "Recorded result": "> 10 µM"}
{"Compound": "Cn1c(=O)cc(OCc2cn(CCC[N+]3(C)CCCC3)nn2)c2ccccc21", "Endpoint name": "Ki", "Recorded result": "> 30 µM"}
{"Compound": "N=C(N)NC(=O)c1nc(Cl)c(N2CCCCCC2)nc1N", "Endpoint name": "Ki", "Recorded result": "> 10 µM"}
{"Compound": "CCCN1CCOC2c3cc(C(N)=O)ccc3CCC21 (stereo unspecified)", "Endpoint name": "Ki", "Recorded result": "> 10 µM"}
{"Compound": "COc1cc(OC)c(C(=O)CCCCN2CCC3(CC2)NC(=O)NC3=O)cc1NS(=O)(=O)c1ccc(C(F)(F)F)cc1", "Endpoint name": "Ki", "Recorded result": "> 10 µM"}
